Reference for the values: ChEMBL document CHEMBL1799932

Tested on: Plasmodium berghei
Test: Antimalarial activity against GFP-transfected Plasmodium berghei strain ANKA infected in NMRI mouse assessed as reduction in parasitemia at 25 mg/kg, po administered as single dose measured on day 3 by FACS analysis
Format: functional
Design: scale not given: the % may be the effect or the level left
Entries and their measured Activity follow.
Note: unit % is implicit; provide only the numeric part.

STRUCTURE_AS_SMILES: CCN(CC)CCNc1cc(-c2ccc(C(F)(F)F)cc2)c(C#N)c2nc3ccccc3n12.Cl.Cl
Activity / %: 24.38
--
STRUCTURE_AS_SMILES: CCNCCNc1cc(-c2ccc(C(F)(F)F)cc2)c(C#N)c2nc3ccccc3n12.Cl.Cl
Activity / %: 55.45
--
STRUCTURE_AS_SMILES: Cl.N#Cc1c(-c2ccc(C(F)(F)F)cc2)cc(NCCN2CCCCC2)n2c1nc1ccccc12
Activity / %: 28.07

# evaluate next
Data point: Cl.N#Cc1c(-c2ccc(C(F)(F)F)cc2)cc(NCCN2CCCC2)n2c1nc1ccccc12 ; Activity = 43.2

###

Experiment: Metabolic stability in human liver microsomes assessed as intrinsic clearance per mg protein after 60 mins by LC-MS analysis
Format: ADME, Microsome
Quick rule for you: microsomal CLint under 90 µL/min/mg gets TRUE, anything else gets FALSE.

STRUCTURE_AS_SMILES: Cl.N#Cc1c(-c2ccc(C(F)(F)F)cc2)cc(NCCN2CCOCC2)n2c1nc1ccccc12
CLASSIFICATION: FALSE
//
STRUCTURE_AS_SMILES: Cl.N#Cc1c(-c2ccc(C(F)(F)F)cc2)cc(NCCCN2CCOCC2)n2c1nc1ccccc12
CLASSIFICATION: FALSE
//
STRUCTURE_AS_SMILES: Cl.N#Cc1c(-c2ccc(C(F)(F)F)cc2)cc(NCCN2CCCCC2)n2c1nc1ccccc12
CLASSIFICATION: TRUE
//
STRUCTURE_AS_SMILES: CCN(CC)CCNc1cc(-c2ccc(C(F)(F)F)cc2)c(C#N)c2nc3ccccc3n12.Cl.Cl
CLASSIFICATION: FALSE

Please examine the following record next.
Qu. Consider the molecule CCNCCNc1cc(-c2ccc(C(F)(F)F)cc2)c(C#N)c2nc3ccccc3n12.Cl.Cl . Is its microsomal CLint strictly less than 90 µL/min/mg?
Ans. TRUE

###

Entries and their measured half-life follow.
Experiment: Metabolic stability in human liver microsomes assessed as degradation half life after 60 mins by LC-MS analysis
Type: ADME, Microsome
Note: unit min is implicit; provide only the numeric part.

STRUCTURE_AS_SMILES: Cl.N#Cc1c(-c2ccc(C(F)(F)F)cc2)cc(NCCCN2CCOCC2)n2c1nc1ccccc12
half-life, min: 10.4

STRUCTURE_AS_SMILES: Cl.N#Cc1c(-c2ccc(C(F)(F)F)cc2)cc(NCCN2CCCCC2)n2c1nc1ccccc12
half-life, min: 37.9

STRUCTURE_AS_SMILES: Cl.N#Cc1c(-c2ccc(C(F)(F)F)cc2)cc(NCCN2CCCC2)n2c1nc1ccccc12
half-life, min: 19.6

STRUCTURE_AS_SMILES: Cl.N#Cc1c(-c2ccc(C(F)(F)F)cc2)cc(NCCN2CCOCC2)n2c1nc1ccccc12
half-life, min: 15.9

STRUCTURE_AS_SMILES: CCNCCNc1cc(-c2ccc(C(F)(F)F)cc2)c(C#N)c2nc3ccccc3n12.Cl.Cl
half-life, min: 137

# evaluate next
Data point: CCN(CC)CCNc1cc(-c2ccc(C(F)(F)F)cc2)c(C#N)c2nc3ccccc3n12.Cl.Cl ; half-life = 13.7
